Sourced from the supplement of paper PMC10567573

B1: PPFIA4 (parent)
chain: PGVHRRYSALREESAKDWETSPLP

Variants of: B1
Experimental Details: protein stability index of a GFP-peptide fusion (GPS, HEK-293T) (PSI 1-6); higher = more stable;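 further: lentivirally expressed fusions sorted by FACS into six bins by GFP to DsRed ratio, PSI derived from sequencing read proportions per bin multiplied by bin number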
Measurement Parameters: c terminus: a fixed tail appended
# class assignment by measured protein stability index: band A = under 4, band B = from 4 up to 5, band C = 5 and over

E12M    band A
W18C    band C
A15F    band A
L10V    band B
E12S    band A
R5V    band A

Problem: Looking at `W18D` , which class would you pick?
Solution: band C

Problem: Looking at `W18K` , which class would you pick?
Solution: band B

Problem: Looking at `K16H` , which class would you pick?
Solution: band B

Problem: Looking at `Y7V` , which class would you pick?
Solution: band B

Problem: Looking at `P24C` , which class would you pick?
Solution: band B

Problem: Looking at `G2T` , which class would you pick?
Solution: band B

Problem: Looking at `P24G` , which class would you pick?
Solution: band B

Problem: Looking at `L23E` , which class would you pick?
Solution: band A

Problem: Looking at `S21N` , which class would you pick?
Solution: band C

Problem: Looking at `E19S` , which class would you pick?
Solution: band A

Problem: Looking at `A15E` , which class would you pick?
Solution: band B
